# Measurement description: Diclofenac plasma pharmacokinetics in chickens after IV dosing (HPLC, non-compartmental)
# Run parameters: in vivo, iv, Cmax, test group (fluconazole + diclofenac IV), birds dead; GM, dose corrected to 1 mg/kg
Readout name: Cmax (ng/mL)

>>> df
                                   compound  unit_of_measure  recorded_number
0  O=C(O)Cc1ccccc1Nc1c(Cl)cccc1Cl [diclofenac, diclofenac sodium]            ng/mL             1240

====

# Measurement description: Diclofenac plasma pharmacokinetics in chickens after IV dosing (HPLC, non-compartmental)
# Run parameters: in vivo, iv, Cl, test group (fluconazole + diclofenac IV), birds alive; GM
Readout name: clearance (mL/min/kg)

                                   compound  unit_of_measure  recorded_number
0  O=C(O)Cc1ccccc1Nc1c(Cl)cccc1Cl [diclofenac, diclofenac sodium]        mL/min/kg             30.5
